Test: Pharmacokinetics of major prototype compounds in healthy Chinese and African volunteers after single oral K-601 (EIC peak area vs time)
Type: in vivo, human
Details: single oral 40 mL K-601
measured-attribute: AUC comparison African vs Chinese volunteers (in words)

>>> df
                            compound_string  test_value
0  COc1cc2c(cc1O)CC[n+]1cc3c(OC)c(OC)ccc3cc1-2      higher
1  COc1cc2c(cc1OC)-c1cc3ccc(OC)c(OC)c3c[n+]1CC2      higher
2  COc1ccc2cc3[n+](cc2c1OC)CCc1cc2c(cc1-3)OCO2      higher

###

Listed here are compounds together with their documented Abund. (peak height in the EIC) of prototype compound in plasma.
Assay: Identification of prototype compounds and metabolites in human plasma after oral K-601 (UPLC-QTOF/MS, EIC peak height)
Assay type: in vivo
Conditions: human plasma after single oral 40 mL K-601; prototype compounds

Solved cases below.
>>> print(df.to_string())
                                   compound   test_value
0  COc1c(O[C@@H]2O[C@H](C(=O)O)[C@@H](O)[C@H](O)[C@H]2O)cc(O)c2c(=O)cc(-c3ccccc3)oc12 [P13, Wogonoside]   0.42 ×10^4
1  COc1cc2c(cc1OC)[C@@H]1Cc3ccc(OC)c(OC)c3CN1CC2 [P2, Tetrahydropalmatine]   0.03 ×10^4
2  O=C(/C=C/c1ccc(O)c(O)c1)O[C@@H]1C[C@](O)(C(=O)O)C[C@@H](O)[C@H]1O   0.03 ×10^4
3  COc1cc2c(cc1OC)-c1cc3ccc(OC)c(OC)c3c[n+]1CC2  12.63 ×10^4
4  COc1ccc2cc3[n+](cc2c1OC)CCc1cc2c(cc1-3)OCO2  50.35 ×10^4
5  O=c1c(O[C@@H]2O[C@H](CO)[C@H](O)[C@H](O)[C@H]2O)c(-c2ccc(O)c(O)c2)oc2cc(O)cc(O)c12 [P10, Hyperoside]   0.05 ×10^4

// Abund. (peak height in the EIC) of prototype compound in plasma lookup, key: `Cc1cc(O)c2c(c1)C(=O)c1cc(O)cc(O)c1C2=O`
0.04 ×10^4

Recorded Abund. (peak height in the EIC) of prototype compound in plasma of `O=C(O)c1cc(O)c2c(c1)C(=O)c1cccc(O)c1C2=O` , please.
0.62 ×10^4
